Values from patent US20250051355A1

target: human calcitonin receptor (CTR) and RAMP3 (AMY3) (Homo sapiens, UniProt O60896+P30988); assay: Amylin Receptor cAMP Assay I; format: cell-based; conditions: COS-7/AMY3 cells, cAMP Hi-range Kit, read-out: Amylin Receptor cAMP Stimulation Activity: EC50
Sequence (O60896 24-148): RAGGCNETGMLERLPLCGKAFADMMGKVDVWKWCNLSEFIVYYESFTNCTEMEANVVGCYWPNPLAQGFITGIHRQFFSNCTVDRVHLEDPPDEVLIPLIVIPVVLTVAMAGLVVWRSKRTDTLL
Sequence (P30988 25-474): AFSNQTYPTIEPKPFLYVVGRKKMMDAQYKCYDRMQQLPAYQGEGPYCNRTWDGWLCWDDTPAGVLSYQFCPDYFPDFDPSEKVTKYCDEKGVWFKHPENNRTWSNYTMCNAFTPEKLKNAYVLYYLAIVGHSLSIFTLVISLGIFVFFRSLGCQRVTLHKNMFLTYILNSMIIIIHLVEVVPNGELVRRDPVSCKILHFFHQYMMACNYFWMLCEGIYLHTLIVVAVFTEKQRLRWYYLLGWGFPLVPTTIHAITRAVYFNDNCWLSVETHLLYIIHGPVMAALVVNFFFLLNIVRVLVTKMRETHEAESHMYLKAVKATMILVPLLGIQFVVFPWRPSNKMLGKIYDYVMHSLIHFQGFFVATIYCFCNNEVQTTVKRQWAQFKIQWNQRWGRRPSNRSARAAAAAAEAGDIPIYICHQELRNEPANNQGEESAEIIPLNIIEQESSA
pEC50: −log10 of the molar value.
parameter measured: pEC50

Below, each entry is followed by its recorded pEC50 result.
>  <compound>
COc1cccc(CNc2nccc3cc(-c4c5c(nc(CCC6CCOCC6)c4-c4nnc(C)o4)[C@@H]4CCCN4C5=O)sc23)c1

>  <pEC50>
5.66

$$$$
>  <compound>
CO[C@H]1C[C@@H](NC(=O)c2ccc(-c3c4c(nc(CCc5ccc(F)cc5)c3-c3nnc(C)o3)[C@@H]3CCCN3C4=O)s2)c2ccccc21 (stereo in doubt)

>  <pEC50>
7.20

$$$$
>  <compound>
Cc1nnc(-c2c(COC3CCOCC3)nc3c(c2-c2ccc(C(=O)NCc4ccc(F)c(F)c4)s2)C(=O)N2CCC[C@@H]32)o1

>  <pEC50>
5.80

$$$$
>  <compound>
Cc1cnc(-c2c(CCC3CCOCC3)nc3c(c2-c2cc4ccnc(NCc5cncc(F)c5)c4s2)C(=O)N2CCC[C@@H]32)o1

>  <pEC50>
6.44

$$$$

(a) Cc1ncoc1-c1c(CCc2ccc(F)cc2)nc2c(c1-c1ccc(C(=O)NCc3ccc(F)c(F)c3)s1)C(=O)N1CCC[C@@H]21
(b) Cc1nnc(-c2c(CCc3ccc(F)cc3)nc3c(c2-c2cc4ccnc(NCc5ccc(F)c(F)c5)c4s2)C(=O)N2CCC[C@@H]32)o1
Q: Endpoint returns the identifier whose pEC50 is numerically larger, either a or b . Use the label to indicate which entry you chose.
Ans: b
(b: 7.69, a: 7.39)

* * *

target: human calcitonin receptor (CTR) and RAMP3 (AMY3) (Homo sapiens, UniProt O60896+P30988); test: Amylin Receptor cAMP Assay II; assay type: cell-based; conditions: COS-7/AMY3 cells, cAMP dynamic 2 kit, read-out: Amylin Receptor cAMP Stimulation Activity: EC50
pEC50: −log10 of the molar value.
parameter measured: pEC50

>  <compound>
Cc1nnc(-c2c(CCC3CCOC(C)(C)C3)nc3c(c2-c2ccc4c(c2)oc(=O)n4Cc2ccc(C#N)c(F)c2)C(=O)N2CCOC[C@@H]32)o1 (stereo partly drawn) [Compound 112]

>  <assay target>
human calcitonin receptor (CTR) and RAMP3 (AMY3) (Homo sapiens, UniProt O60896+P30988)

>  <parameter measured>
pEC50

>  <reported measurement>
6.91

$$$$

(P) Cc1nnc(-c2c(CCC34CCC(CC3)OC4)nc3c(c2-c2cc4ccnc(N[C@@H]5CCc6ncccc65)c4s2)S(=O)(=O)CC3C(C)C)o1 (stereo partly drawn) [Compound 116]
(Q) Cc1cnc(-c2c(CCC34CCC(CC3)OC4)nc3c(c2-c2ccc4c(c2)OC(C)(C)C(=O)N4Cc2ccc(F)cn2)c(=O)n2n3CCC2)o1 [Compound 159]
(R) Cc1nnc(-c2c(CCC3CCOCC3)nc3c(c2-c2cnc4c(ccn4Cc4ccc(C#N)cn4)c2)C(=O)N2CCC[C@@H]32)o1 [Compound 124]
Q: List the 3 entries from lowest pEC50 to highest pEC50 value. Form field (ranking): labels in requested order.
Ans: R, P, Q

(P) Cc1nnc(-c2c(CCc3ccc(F)cc3)nc3c(c2-c2ccc(C(=O)NCc4ccc(F)c(F)c4)s2)C(=O)N2CCOC[C@@H]32)o1 [Compound 68]
(Q) COc1ccnc(-c2c(CCC3CCOCC3)nc3c(c2-c2cc4ccnc(N[C@@H]5CCc6ncccc65)c4s2)S(=O)(=O)CC3C(C)C)n1 (stereo partly drawn) [Compound 146]
Q: Two entries are listed, P and Q . Which one carries the higher pEC50? Select an item and report its label.
Ans: Q
(Q: 7.23, P: 6.77)

* * *

molecular target: human calcitonin receptor (CTR) and RAMP3 (AMY3) (Homo sapiens, UniProt O60896+P30988); experiment: Amylin Receptor cAMP Assay I; format: cell-based; details: COS-7/AMY3 cells, cAMP Hi-range Kit, read-out: Amylin Receptor cAMP Stimulation Activity: EC50
pEC50: −log10 of the molar value.
parameter measured: pEC50

In the examples that follow, each entry is paired with its recorded pEC50.
>  <compound>
Cc1nnc(-c2c(COc3ccc(F)cc3)nc3c(c2-c2ccc(C(=O)NCc4ccc(F)c(F)c4)s2)C(=O)N2CCC[C@@H]32)o1

>  <reported measurement>
6.89

$$$$
>  <compound>
Cc1nnc(-c2c(CCC3CCOCC3)nc3c(c2-c2cc4ccnc(N[C@@H]5CCc6cc(F)ccc65)c4s2)C(=O)N2CCC[C@@H]32)o1

>  <reported measurement>
7.56

$$$$

(P) Cc1nnc(-c2c(CCc3ccc(F)cc3)nc3c(c2-c2ccc(C(=O)NCc4cncc(F)c4)s2)C(=O)N2CCC[C@@H]32)o1
(Q) Cc1ccc(CCc2nc3c(c(-c4ccc(C(=O)NCc5ccc(F)c(F)c5)s4)c2-c2nnc(C)o2)C(=O)N2CCC[C@@H]32)nc1
Q: Two entries are listed, P and Q . Which one carries the higher pEC50? Respond with the label that goes with your answer.
Ans: P

* * *

target: human calcitonin receptor (CTR) and RAMP3 (AMY3) (Homo sapiens, UniProt O60896+P30988); test: Amylin Receptor cAMP Assay II; assay type: cell-based; conditions: COS-7/AMY3 cells, cAMP dynamic 2 kit, read-out: Amylin Receptor cAMP Stimulation Activity: EC50
pEC50: −log10 of the molar value.
parameter measured: pEC50

See these solved cases before continuing.
>  <compound>
Cc1cc(-c2c(CCC3CCOCC3)nc3c(c2-c2ccc4c(c2)oc(=O)n4Cc2ccc(C#N)c(F)c2)c(=O)n2n3CCC2)ccn1

>  <assay target>
human calcitonin receptor (CTR) and RAMP3 (AMY3) (Homo sapiens, UniProt O60896+P30988)

>  <parameter measured>
pEC50

>  <reported measurement>
7.14

$$$$
>  <compound>
Cc1nnc(-c2c(CCc3ccc(F)cc3)nc3c(c2-c2cc4ccnc(N[C@@H]5CCc6ncccc65)c4s2)c(=O)n2n3CCC2)o1

>  <assay target>
human calcitonin receptor (CTR) and RAMP3 (AMY3) (Homo sapiens, UniProt O60896+P30988)

>  <parameter measured>
pEC50

>  <reported measurement>
6.82

$$$$
>  <compound>
Cc1nnc(-c2c(CCc3ccc(F)cc3)nc3c(c2-c2ccc4c(c2)oc(=O)n4C(C)c2ccc(C#N)c(F)c2)c(=O)n2n3CCC2)o1 (stereo not drawn)

>  <assay target>
human calcitonin receptor (CTR) and RAMP3 (AMY3) (Homo sapiens, UniProt O60896+P30988)

>  <parameter measured>
pEC50

>  <reported measurement>
8.06

$$$$
>  <compound>
CCc1nc2c(c(-c3ccc4c(c3)OC(C)(C)C(=O)N4Cc3ccc(F)cn3)c1-c1nnc(C)o1)C(=O)N1CC3CC21C3

>  <assay target>
human calcitonin receptor (CTR) and RAMP3 (AMY3) (Homo sapiens, UniProt O60896+P30988)

>  <parameter measured>
pEC50

>  <reported measurement>
5.27

$$$$

(A) CC(C)C1CS(=O)(=O)c2c1nc(CCC1CCOCC1)c(-c1nnc(N)o1)c2-c1cc2ccnc(N[C@@H]3CCc4ncccc43)c2s1 (stereo partly drawn)
(B) Cc1nnc(-c2c(CCC3CCOCC3)nc3c(c2-c2cc4ccnc(NCc5cnc(C#N)c(F)c5)c4s2)S(=O)(=O)CC3C(C)C)o1 (stereo not drawn)
(C) Cc1nnc(-c2c(CCC3CCOCC3)nc3c(c2-c2cn4cccc(N[C@@H]5CCc6ncccc65)c4n2)S(=O)(=O)CC3C(C)C)o1 (stereo partly drawn)
(D) CC(C)c1nnc(-c2c(CCC3CCOCC3)nc3c(c2-c2ccc4c(c2)oc(=O)n4Cc2ccc(C#N)c(F)c2)c(=O)n2n3CCC2)o1
Q: Returns the items ordered by pEC50, from maximum to minimum. Please express your ranking as an ordered list of the labels.
Ans: D, A, B, C

* * *

target: human calcitonin receptor (CTR) (Homo sapiens); assay: Calcitonin receptor (CTR) cAMP Assay; settings: COS7-human CTR Clone #2 cells, cAMP dynamic 2 kit; read-out: Calcitonin Receptor cAMP Stimulation Activity: EC50
Sequence (P30988 25-474): as above
pEC50: −log10 of the molar value.
parameter measured: pEC50

Example entries and their recorded answers appear below.
>  <compound>
Cc1nnc(-c2c(CCc3ccc(F)cc3)nc3c(c2-c2cc4ccnc(N[C@@H]5CCc6ncccc65)c4s2)c(=O)n2n3CCC2)o1 [Compound 139]

>  <pEC50>
8.06

$$$$
>  <compound>
CC(C)C1CS(=O)(=O)c2c1nc(CCC1CCOCC1)c(-c1nnc(CN(C)C)o1)c2-c1cc2ccnc(N[C@@H]3CCc4ncccc43)c2s1 (stereo partly drawn) [Compound 117]

>  <pEC50>
8.00

$$$$

(P) Cc1nnc(-c2c(CCC3CCOCC3)nc3c(c2-c2ccc4c(cnn4Cc4ccc(C#N)c(F)c4)c2)C(=O)N2CCOC[C@@H]32)o1 [Compound 105]
(Q) Cc1ccnc(-c2c(CCC3CCOCC3)nc3c(c2-c2cc4ccnc(N[C@@H]5CCc6ncccc65)c4s2)S(=O)(=O)CC3C(C)C)c1 (stereo partly drawn) [Compound 118]
(R) Cc1nnc(-c2c(CCC3CCOCC3)nc3c(c2-c2cc4ccnc(NCc5cnc(C#N)c(F)c5)c4s2)S(=O)(=O)CC3C(C)C)o1 (stereo not drawn) [Compound 133]
Q: Sort low-to-high on pEC50, please. // list labels; follow requested order
Ans: Q, R, P
(Q: 7.14, R: 7.37, P: 8.02)
